Molecular target: T1, LZTR1 R810W-FLAG (human, UniProt Q8N653 1-840)
T1 construct: Stably expressed in U87 cells by lentivirus; also called LZTR1-FLAG-R810W; LZTR1 RW; not shown: FLAG tag
T1 sequence (looked up): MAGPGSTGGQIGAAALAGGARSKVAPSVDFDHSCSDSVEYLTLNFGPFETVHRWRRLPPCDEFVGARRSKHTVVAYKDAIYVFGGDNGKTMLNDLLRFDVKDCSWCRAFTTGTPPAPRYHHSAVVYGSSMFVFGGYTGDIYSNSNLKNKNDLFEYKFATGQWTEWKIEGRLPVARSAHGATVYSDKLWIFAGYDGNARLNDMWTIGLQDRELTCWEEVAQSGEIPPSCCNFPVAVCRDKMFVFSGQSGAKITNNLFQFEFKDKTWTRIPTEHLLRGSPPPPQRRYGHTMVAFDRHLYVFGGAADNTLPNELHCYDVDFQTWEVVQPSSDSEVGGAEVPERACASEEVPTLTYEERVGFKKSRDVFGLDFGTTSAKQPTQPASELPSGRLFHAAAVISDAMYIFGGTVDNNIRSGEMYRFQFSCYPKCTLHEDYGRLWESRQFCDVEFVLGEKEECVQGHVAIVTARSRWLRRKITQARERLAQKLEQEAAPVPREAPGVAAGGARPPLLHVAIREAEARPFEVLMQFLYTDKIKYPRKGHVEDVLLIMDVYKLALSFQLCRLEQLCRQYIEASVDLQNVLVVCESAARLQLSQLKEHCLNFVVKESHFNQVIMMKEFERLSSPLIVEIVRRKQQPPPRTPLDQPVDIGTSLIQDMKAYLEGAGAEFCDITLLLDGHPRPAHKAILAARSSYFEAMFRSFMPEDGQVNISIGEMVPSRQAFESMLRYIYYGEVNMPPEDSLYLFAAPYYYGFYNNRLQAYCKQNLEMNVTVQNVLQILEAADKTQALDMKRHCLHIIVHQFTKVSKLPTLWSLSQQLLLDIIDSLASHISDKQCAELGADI
Experiment: IP/MS, LZTR1 R810W-FLAG, U87

>  <Binder>
CCNB2 (other, human, UniProt O95067 1-398, looked up) MALLRRPTVSSDLENIDTGVNSKVKSHVTIRRTVLEEIGNRVTTRAAQVAKKAQNTKVPVQPTKTTNVNKQLKPTASVKPVQMEKLAPKGPSPTPEDVSMKEENLCQAFSDALLCKIEDIDNEDWENPQLCSDYVKDIYQYLRQLEVLQSINPHFLDGRDINGRMRAILVDWLVQVHSKFRLLQETLYMCVGIMDRFLQVQPVSRKKLQLVGITALLLASKYEEMFSPNIEDFVYITDNAYTSSQIREMETLILKELKFELGRPLPLHFLRRASKAGEVDVEQHTLAKYLMELTLIDYDMVHYHPSKVAAAASCLSQKVLGQGKWNLKQQYYTGYTENEVLEVMQHMAKNVVKVNENLTKFIAIKNKYASSKLLKISMIPQLNSKAVKDLASPLIGRS

>  <binding result>
binds

$$$$
>  <Binder>
PPP6C (other, human, UniProt O00743 1-305, looked up) MAPLDLDKYVEIARLCKYLPENDLKRLCDYVCDLLLEESNVQPVSTPVTVCGDIHGQFYDLCELFRTGGQVPDTNYIFMGDFVDRGYYSLETFTYLLALKAKWPDRITLLRGNHESRQITQVYGFYDECQTKYGNANAWRYCTKVFDMLTVAALIDEQILCVHGGLSPDIKTLDQIRTIERNQEIPHKGAFCDLVWSDPEDVDTWAISPRGAGWLFGAKVTNEFVHINNLKLICRAHQLVHEGYKFMFDEKLVTVWSAPNYCYRCGNIASIMVFKDVNTREPKLFRAVPDSERVIPPRTTTPYFL

>  <binding result>
binds

$$$$
>  <Binder>
MAEA (other, human, UniProt Q7L5Y9 1-396, looked up) MAVQESAAQLSMTLKVQEYPTLKVPYETLNKRFRAAQKNIDRETSHVTMVVAELEKTLSGCPAVDSVVSLLDGVVEKLSVLKRKAVESIQAEDESAKLCKRRIEHLKEHSSDQPAAASVWKRKRMDRMMVEHLLRCGYYNTAVKLARQSGIEDLVNIEMFLTAKEVEESLERRETATCLAWCHDNKSRLRKMKSCLEFSLRIQEFIELIRQNKRLDAVRHARKHFSQAEGSQLDEVRQAMGMLAFPPDTHISPYKDLLDPARWRMLIQQFRYDNYRLHQLGNNSVFTLTLQAGLSAIKTPQCYKEDGSSKSPDCPVCSRSLNKLAQPLPMAHCANSRLVCKISGDVMNENNPPMMLPNGYVYGYNSLLSIRQDDKVVCPRTKEVFHFSQAEKVYIM

>  <binding result>
binds

$$$$
